For each record, write down the corresponding kinact/KI.
system_tested: recombinant human Caspase-1 (Homo sapiens, UniProt P29466)
Construct: purchased Enzo life science
Sequence (P29466 120-297 limits assumed): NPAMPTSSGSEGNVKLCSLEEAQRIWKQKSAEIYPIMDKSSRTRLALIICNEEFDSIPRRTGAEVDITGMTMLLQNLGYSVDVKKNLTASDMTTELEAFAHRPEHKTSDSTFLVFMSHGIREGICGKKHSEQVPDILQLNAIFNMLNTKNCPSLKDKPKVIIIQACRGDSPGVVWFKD
Sequence (P29466 317-404 limits assumed): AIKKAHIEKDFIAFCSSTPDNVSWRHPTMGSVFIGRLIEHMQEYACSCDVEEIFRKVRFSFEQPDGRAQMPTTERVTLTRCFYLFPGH
procedure_details: Caspase-1 inhibitory activity, fluorescent substrate Ac-YVAD-AFC
Format: biochemical
condition_description: pH 8, read-out: kobs/[I] Caspase-1

Quick one: kinact/KI for CC(C)[C@@H](C(=O)NC(CC(=O)O)C(=O)CF)N1Cc2ccc(N3CCCC3)cc2C1=O (stereo partly drawn) ?
< 0.0167 M⁻¹ s⁻¹

Quick one: kinact/KI for CCC(C(=O)NC(CC(=O)O)C(=O)CF)N1Cc2ccc(-c3cccc4cnccc34)cc2C1=O (stereo not drawn) ?
0.0167 to 0.167 M⁻¹ s⁻¹

Quick one: kinact/KI for CCC(C(=O)NC(CC(=O)O)C(=O)CF)N1Cc2ccc(-c3cccc4ccncc34)cc2C1=O (stereo not drawn) ?
0.0167 to 0.167 M⁻¹ s⁻¹

Quick one: kinact/KI for CC[C@@H](C(=O)NC(CC(=O)O)C(=O)CF)N1Cc2cc(N3CCCC3)ccc2C1=O (stereo partly drawn) ?
< 0.0167 M⁻¹ s⁻¹

Quick one: kinact/KI for CC[C@@H](C(=O)N[C@@H](CC(=O)O)C(=O)COc1c(F)c(F)cc(F)c1F)N1Cc2ccc(N3CCCC3)cc2C1=O ?
0.0167 to 0.167 M⁻¹ s⁻¹

Quick one: kinact/KI for CCC(C(=O)NC(CC(=O)O)C(=O)CF)N1Cc2ccc(-c3csc4ccccc34)cc2C1=O (stereo not drawn) ?
> 0.333 M⁻¹ s⁻¹

Quick one: kinact/KI for C[C@@H](C(=O)NC(CC(=O)O)C(=O)CF)N1Cc2ccc(-c3ccc4[nH]c(=O)[nH]c4c3)cc2C1=O (stereo partly drawn) ?
0.0167 to 0.167 M⁻¹ s⁻¹

Quick one: kinact/KI for CC[C@@H](C(=O)NC(CC(=O)O)C(=O)CF)N1Cc2cc(N3CCN(c4nsc5ccccc45)CC3)ccc2C1=O (stereo partly drawn) ?
< 0.0167 M⁻¹ s⁻¹

Quick one: kinact/KI for CC[C@@H](C(=O)NC(CC(=O)O)C(=O)CF)N1Cc2cc(-c3cccc4ccccc34)ccc2C1=O (stereo partly drawn) ?
< 0.0167 M⁻¹ s⁻¹

Quick one: kinact/KI for CC[C@@H](C(=O)NC(CC(=O)O)C(=O)CF)N1Cc2cc(-c3csc4ccccc34)ccc2C1=O (stereo partly drawn) ?
< 0.0167 M⁻¹ s⁻¹

Quick one: kinact/KI for C[C@@H](C(=O)NC(CC(=O)O)C(=O)CF)N1Cc2ccc(N3CCCC3)cc2C1=O (stereo partly drawn) ?
< 0.0167 M⁻¹ s⁻¹

Quick one: kinact/KI for O=C(O)CC(NC(=O)CN1Cc2ccc(-c3csc4ccccc34)cc2C1=O)C(=O)CF (stereo not drawn) ?
0.0167 to 0.167 M⁻¹ s⁻¹

Quick one: kinact/KI for O=C(O)CC(NC(=O)CN1Cc2ccc(-c3coc4ccccc34)cc2C1=O)C(=O)CF (stereo not drawn) ?
0.0167 to 0.167 M⁻¹ s⁻¹

Quick one: kinact/KI for CC[C@@H](C(=O)NC(CC(=O)O)C(=O)CF)N1Cc2cc(N3CCn4cc(C(F)(F)F)nc4C3)ccc2C1=O (stereo partly drawn) ?
< 0.0167 M⁻¹ s⁻¹

Quick one: kinact/KI for CC[C@@H](C(=O)NC(CC(=O)O)C(=O)CF)N1Cc2cc(-c3ccc4occc4c3)ccc2C1=O (stereo partly drawn) ?
< 0.0167 M⁻¹ s⁻¹
